Overview of reported IC50 across a group of compounds:
system-under-test: human TRPA1 receptor (Homo sapiens)
Sequence (O75762 whole entry): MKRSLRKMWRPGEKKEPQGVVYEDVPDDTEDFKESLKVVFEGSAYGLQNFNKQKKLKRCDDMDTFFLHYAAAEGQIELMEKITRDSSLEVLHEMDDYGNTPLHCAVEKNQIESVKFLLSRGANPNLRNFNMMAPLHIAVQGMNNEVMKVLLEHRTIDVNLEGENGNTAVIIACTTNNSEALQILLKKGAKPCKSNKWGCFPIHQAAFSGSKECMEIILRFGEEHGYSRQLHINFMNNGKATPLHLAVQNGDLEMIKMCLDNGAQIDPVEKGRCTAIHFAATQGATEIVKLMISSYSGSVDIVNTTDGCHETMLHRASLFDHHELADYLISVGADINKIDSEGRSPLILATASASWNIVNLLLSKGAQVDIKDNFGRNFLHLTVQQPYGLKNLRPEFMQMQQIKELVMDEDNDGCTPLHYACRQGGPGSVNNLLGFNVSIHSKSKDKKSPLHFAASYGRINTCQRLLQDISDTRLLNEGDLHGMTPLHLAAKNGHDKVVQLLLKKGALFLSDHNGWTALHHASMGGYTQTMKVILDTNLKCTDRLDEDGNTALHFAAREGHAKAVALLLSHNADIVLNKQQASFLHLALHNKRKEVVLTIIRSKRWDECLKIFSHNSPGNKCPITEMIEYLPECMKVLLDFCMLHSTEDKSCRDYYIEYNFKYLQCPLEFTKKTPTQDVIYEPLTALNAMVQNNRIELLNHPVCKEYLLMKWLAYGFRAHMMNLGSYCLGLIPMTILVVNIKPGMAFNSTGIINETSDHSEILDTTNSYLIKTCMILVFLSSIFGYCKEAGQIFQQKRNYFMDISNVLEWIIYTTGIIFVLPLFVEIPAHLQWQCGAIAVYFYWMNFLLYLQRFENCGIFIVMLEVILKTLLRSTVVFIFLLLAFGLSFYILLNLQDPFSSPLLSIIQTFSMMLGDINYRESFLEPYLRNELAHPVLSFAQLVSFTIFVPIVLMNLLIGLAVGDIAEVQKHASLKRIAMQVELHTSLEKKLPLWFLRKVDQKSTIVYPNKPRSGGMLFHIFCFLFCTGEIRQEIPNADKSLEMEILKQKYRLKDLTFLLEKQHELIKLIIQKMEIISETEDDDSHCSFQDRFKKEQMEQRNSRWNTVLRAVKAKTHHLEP
assay-comment: Inhibition of AITC induced cellular uptake of radioactive calcium in human TRPA1 expressing CHO cells
condition-description: read-out: hTRPA1 IC50 values
Give just the numeric value; nM need not be written.

INSERT INTO results (compound, endpoint_unit, measured) VALUES
  ('Cn1c(=O)c2c(CC(=O)Nc3nc(-c4ccc(F)c(C(F)(F)F)c4F)cs3)onc2n(C)c1=O [Compound 92]', 'nM', 17.1),
  ('Cn1c(=O)c2c(CC(=O)Nc3nc(-c4cc(F)c(OCC(F)(F)F)c(F)c4)cs3)coc2n(C)c1=O [Compound 56]', 'nM', 3.38);

Next, consider the following compound.
Endpoint output: IC50 of COCCCOc1cccc(C2NC(=S)NC3=C2C(=O)c2ccccc23)c1 (stereo not drawn) [Compound 90] . Value?
5.61
